These entries and their values trace back to ChEMBL document CHEMBL4689842.

Test system: HEK-293T
Assay: Multiplex assay against HEK293T
Format: toxicity, cell-based
Conditions: human, 24 h, 10 µM, compound concentration 10 uM, replicate 1
Task for the reader: assign each of the following compounds its reported Population Healthy Nuclei (%).
# output: bare number, implied unit %

# compound CCN1CCN(c2ccc(Nc3cc(N(C)C(=O)Nc4c(Cl)c(OC)cc(OC)c4Cl)ncn3)cc2)CC1 ; its Population Healthy Nuclei (%) = 76

Measured Population Healthy Nuclei (%), O=C(Nc1cccnn1)N1CCC(=Cc2cccc(Oc3ccc(C(F)(F)F)cn3)c2)CC1 : 83

Looking up CN1CCN(C(=O)C(C)(C)c2ccc(C(=O)Nc3cn4cc(-c5cc(C(C)(C)C)cc(C(C)(C)C)c5)ccc4n3)cc2)CC1 , I see its Population Healthy Nuclei (%) listed as 46

Sample Cc1cc(C)c(S(=O)(=O)N(Cc2ccc(-c3cccc(S(C)(=O)=O)c3)cc2)Cc2ccc(C(F)(F)F)o2)c(C)c1 ; Population Healthy Nuclei (%) observed: 38

The value of Population Healthy Nuclei (%) measured for the compound COc1cccc2cc(-c3nc([C@H]4CC[C@H](C(=O)O)CC4)n4ncnc(N)c34)[nH]c12 turned out to be 53

For S=C(NCCCc1c[nH]cn1)NCCCN(Cc1ccc(Cl)c(Cl)c1)c1ccc(Br)cn1 the compound record lists Population Healthy Nuclei (%) as 2

# Population Healthy Nuclei (%) of CNC(=O)c1ccc(Nc2nc(OC3CCCC3)c3c(-c4ccc5nc(C)oc5c4)c[nH]c3n2)c(OC)c1 = 62

The recorded Population Healthy Nuclei (%) for entry CNc1cc(Oc2cc(C(=O)Nc3cc(N4CCN(C)CC4)cc(C(F)(F)F)c3)ccc2C)ncn1 equals 0

The recorded Population Healthy Nuclei (%) for CCc1cccc(CC)c1NC(=O)c1nn(C)c2c1CCc1cnc(Nc3ccc(C(=O)NC4CCN(C)CC4)cc3OC(F)(F)F)nc1-2 is 42

Sample O=C1NC(=O)C(c2cnc3ccccn23)=C1c1cn2c3c(cc(F)cc13)CN(C(=O)N1CCCCC1)CC2 ; Population Healthy Nuclei (%) observed: 38

Entry Cc1cn(-c2cc(NC(=O)c3ccc(C)c(Nc4nccc(-c5cccnc5)n4)c3)cc(C(F)(F)F)c2)cn1 ; Population Healthy Nuclei (%) = 11

The recorded Population Healthy Nuclei (%) for entry COc1ccc(-c2ccc3c(N4CCOCC4)nc(N4C[C@@H](C)O[C@@H](C)C4)nc3n2)cc1CO equals 65
